Every entry's value here was drawn from PubChem BioAssay (Tox21).

target: Voltage-gated inwardly rectifying potassium channel KCNH2 (Homo sapiens) (UniProt Q12809); test: Human Ether-a-go-go-Related Gene (hERG) channel small molecule antagonists: fluorescence cell-based qHTS assay (AID 1671200); conditions: hERG-U2OS cells, FluxOR thallium flux fluorescence; series mostly up to 76.8 µM; note: nearly all actives have a fitted effect of over 50% in size
Sequence (Q12809 whole entry, looked up): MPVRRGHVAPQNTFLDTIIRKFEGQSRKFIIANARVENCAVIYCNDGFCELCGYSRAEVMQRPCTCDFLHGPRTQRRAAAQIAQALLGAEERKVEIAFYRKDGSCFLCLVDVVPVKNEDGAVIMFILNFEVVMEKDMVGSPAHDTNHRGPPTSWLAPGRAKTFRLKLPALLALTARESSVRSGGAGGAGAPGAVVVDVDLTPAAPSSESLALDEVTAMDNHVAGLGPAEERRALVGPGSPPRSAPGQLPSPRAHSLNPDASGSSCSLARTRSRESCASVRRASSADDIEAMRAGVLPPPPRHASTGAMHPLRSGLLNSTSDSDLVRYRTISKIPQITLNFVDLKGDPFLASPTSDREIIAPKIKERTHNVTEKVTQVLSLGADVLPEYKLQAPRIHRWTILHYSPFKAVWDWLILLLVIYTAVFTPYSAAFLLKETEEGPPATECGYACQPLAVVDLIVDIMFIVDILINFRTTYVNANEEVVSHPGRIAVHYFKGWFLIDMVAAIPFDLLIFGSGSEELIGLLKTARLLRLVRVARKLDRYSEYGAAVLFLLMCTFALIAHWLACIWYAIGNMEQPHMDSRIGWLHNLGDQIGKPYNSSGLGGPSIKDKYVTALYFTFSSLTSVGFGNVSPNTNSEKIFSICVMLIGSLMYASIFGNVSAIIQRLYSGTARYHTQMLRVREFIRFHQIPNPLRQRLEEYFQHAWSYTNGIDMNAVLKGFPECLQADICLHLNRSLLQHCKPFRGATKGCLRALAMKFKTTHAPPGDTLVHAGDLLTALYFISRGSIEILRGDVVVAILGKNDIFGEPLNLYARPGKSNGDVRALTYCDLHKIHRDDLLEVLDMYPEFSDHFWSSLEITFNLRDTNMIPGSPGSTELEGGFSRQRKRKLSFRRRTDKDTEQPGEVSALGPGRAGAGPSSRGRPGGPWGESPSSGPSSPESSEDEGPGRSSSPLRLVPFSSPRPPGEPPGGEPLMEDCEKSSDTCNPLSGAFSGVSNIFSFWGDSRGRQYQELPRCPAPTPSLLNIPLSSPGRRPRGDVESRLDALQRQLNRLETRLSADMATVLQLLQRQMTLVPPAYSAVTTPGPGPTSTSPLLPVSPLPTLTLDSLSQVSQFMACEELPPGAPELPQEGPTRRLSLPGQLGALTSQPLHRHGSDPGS
Records with an inconclusive call do not appear. Calls of active or inactive are those of the source. Calls come from the whole dose curve; as a rule, active = well fitted inhibition curve with a large enough effect in the repeat runs; inconclusive = weak or mixed curves; inactive = flat fitted curve, though single readings scatter.
Possible outcomes: active, inactive

| Input smiles | Class assignment |
| --- | --- |
| O=[N+]([O-])c1cccc2c([N+](=O)[O-])cccc12 | active |
| Nc1cnn(-c2ccccc2)c(=O)c1Cl | inactive |
| CCCSC(=O)N(CCC)CCC | inactive |

----------
biological target: Voltage-gated inwardly rectifying potassium channel KCNH2 (Homo sapiens) (UniProt Q12809); experiment: Human Ether-a-go-go-Related Gene (hERG) channel small molecule antagonists: fluorescence cell-based qHTS assay (AID 1671200); conditions: hERG-U2OS cells, FluxOR thallium flux fluorescence; series mostly up to 76.8 µM; note: nearly all actives have a fitted effect of over 50% in size
Results filed as inconclusive are left out. Active and inactive are the calls of the source. Calls come from the whole dose curve; as a rule, active = well fitted inhibition curve with a large enough effect in the repeat runs; inconclusive = weak or mixed curves; inactive = flat fitted curve, though single readings scatter.
Possible outcomes: true (active), false (inactive)

| Compound | Target under test | Class assignment |
| --- | --- | --- |
| CCOP(=S)(OCC)SCSc1ccc(Cl)cc1 | Voltage-gated inwardly rectifying potassium channel KCNH2 (Homo sapiens) (UniProt Q12809) | false |
| CCOc1nc(C(Cl)(Cl)Cl)ns1 | Voltage-gated inwardly rectifying potassium channel KCNH2 (Homo sapiens) (UniProt Q12809) | false |
| CC(C(O)c1ccccc1)N(C)C/C=C/c1ccccc1 (centres undefined) | Voltage-gated inwardly rectifying potassium channel KCNH2 (Homo sapiens) (UniProt Q12809) | true |
| CNC(=O)O/N=C(\C)SC | Voltage-gated inwardly rectifying potassium channel KCNH2 (Homo sapiens) (UniProt Q12809) | false |
| ClC(Br)Br | Voltage-gated inwardly rectifying potassium channel KCNH2 (Homo sapiens) (UniProt Q12809) | false |
| CC(=O)CCc1ccc2c(c1)OCO2 | Voltage-gated inwardly rectifying potassium channel KCNH2 (Homo sapiens) (UniProt Q12809) | false |
| CCCCC(=O)Cl | Voltage-gated inwardly rectifying potassium channel KCNH2 (Homo sapiens) (UniProt Q12809) | false |
| CCCSC(=O)Cl | Voltage-gated inwardly rectifying potassium channel KCNH2 (Homo sapiens) (UniProt Q12809) | false |
| COC(=O)COc1ccc(Cl)cc1Cl | Voltage-gated inwardly rectifying potassium channel KCNH2 (Homo sapiens) (UniProt Q12809) | false |
| CC(C)COP(=O)(OCC(C)C)OCC(C)C | Voltage-gated inwardly rectifying potassium channel KCNH2 (Homo sapiens) (UniProt Q12809) | false |
| N#CCBr | Voltage-gated inwardly rectifying potassium channel KCNH2 (Homo sapiens) (UniProt Q12809) | false |
| CCCCOC(=O)c1ccccc1N | Voltage-gated inwardly rectifying potassium channel KCNH2 (Homo sapiens) (UniProt Q12809) | false |
| CCc1cc2c(s1)-n1c(C)nnc1CN=C2c1ccccc1Cl | Voltage-gated inwardly rectifying potassium channel KCNH2 (Homo sapiens) (UniProt Q12809) | false |
| CC(=O)Nc1cc([As](=O)(O)O)ccc1O | Voltage-gated inwardly rectifying potassium channel KCNH2 (Homo sapiens) (UniProt Q12809) | false |

----------
assay: qHTS assay to identify small molecule agonists of the estrogen related receptor (ERR) signaling pathway from Tox21 library (AID 1224849); settings: ERR reporter cell line, ONE-Glo luciferase, 18 h; at 92.4 µM (top of the series) unless noted; note: nearly all actives have a fitted effect of over 15% in size
Calls of active or inactive are those of the source. Calls follow the shape of the full dose curve.
Possible outcomes: active, inactive

| Input smiles | Class assignment |
| --- | --- |
| CC(C)(C)OC(=O)c1ncn2c1[C@@H]1CCCN1C(=O)c1c(Br)cccc1-2 | inactive |
| CCCCC(=O)Cl | inactive |
| Nc1c(Br)cc([N+](=O)[O-])cc1[N+](=O)[O-] | inactive |
| CNNC | inactive |
| CNC(=O)N(C)c1nc2ccccc2s1 | active |
| C#CCN1C(=O)COc2cc(F)c(N3C(=O)C4=C(CCCC4)C3=O)cc21 | inactive |

----------
target: Progesterone receptor (Homo sapiens); experiment: qHTS assay to identify small molecule antagonists of the progesterone receptor (PR) signaling pathway (AID 1346795); conditions: PR-UAS-bla HEK293T, beta-lactamase FRET ratio, 16 h; series mostly up to 92.4 µM
Results filed as inconclusive are left out. Calls of active or inactive are those of the source. Calls follow the shape of the dose curve; as a rule, active = well fitted inhibition curve with a large enough effect in the signal ratio in the repeat runs (not every such curve was filed as active); inconclusive = weak or mixed curves; inactive = flat fitted curve, though single readings scatter; the % refers to the signal ratio.
Possible outcomes: active, inactive

| Molecule | Target under test | Class assignment |
| --- | --- | --- |
| Cc1cnc[nH]1 | Progesterone receptor (Homo sapiens) | inactive |
| Nc1cnn(-c2ccccc2)c(=O)c1Cl | Progesterone receptor (Homo sapiens) | inactive |
| CC(C)(C)OC(=O)c1ncn2c1[C@@H]1CCCN1C(=O)c1c(Br)cccc1-2 | Progesterone receptor (Homo sapiens) | inactive |
| CCC(Cl)[N+](=O)[O-] (configuration not stated) | Progesterone receptor (Homo sapiens) | inactive |
| Nc1cc2c3c(c1)C(c1ccccc1)=N[C@@H](NC(=O)c1cccnc1)C(=O)N3CC2 | Progesterone receptor (Homo sapiens) | inactive |
| NC(=S)C(N)=S | Progesterone receptor (Homo sapiens) | inactive |
| O=[N+]([O-])c1ccc2c3c(cccc13)CC2 | Progesterone receptor (Homo sapiens) | active |
| CCC#N | Progesterone receptor (Homo sapiens) | inactive |
| C[C@]12CC[C@H]3[C@@H](CC=C4C[C@@H](O)CC[C@@]43C)[C@@H]1CC[C@@H]2O | Progesterone receptor (Homo sapiens) | inactive |
| N#CC(O)c1ccccc1 (configuration not stated) | Progesterone receptor (Homo sapiens) | inactive |
| CCC1(c2ccccc2)C(=O)N=C(O)NC1=O (configuration not stated) | Progesterone receptor (Homo sapiens) | inactive |
| ClC(Cl)C(Cl)Cl | Progesterone receptor (Homo sapiens) | inactive |
| Clc1ccccc1N1CCNCC1 | Progesterone receptor (Homo sapiens) | inactive |
| O=[N+]([O-])c1cccc2cccnc12 | Progesterone receptor (Homo sapiens) | inactive |
| O=C(N[C@H]1CN2CCC1CC2)c1cc2ccoc2cn1 | Progesterone receptor (Homo sapiens) | inactive |
| OC(Cn1cncn1)(c1ccc(F)cc1)c1ccccc1F (configuration not stated) | Progesterone receptor (Homo sapiens) | inactive |
| CC(C)CC(N(C)C)C1(c2ccc(Cl)cc2)CCC1 (configuration not stated) | Progesterone receptor (Homo sapiens) | inactive |
| CNC(=O)O/N=C(\C)SC | Progesterone receptor (Homo sapiens) | inactive |
| CCOP(=O)(OCC)OP(=O)(OCC)OCC | Progesterone receptor (Homo sapiens) | inactive |
| Cc1ccccc1CO[C@@H]1C[C@@]2(C(C)C)CC[C@]1(C)O2 | Progesterone receptor (Homo sapiens) | inactive |
| CC(C)COP(=O)(OCC(C)C)OCC(C)C | Progesterone receptor (Homo sapiens) | inactive |
| O=C(CCN1CC1)OCC(CO)(COC(=O)CCN1CC1)COC(=O)CCN1CC1 | Progesterone receptor (Homo sapiens) | inactive |
| COC(=O)c1ccccc1S(=O)(=O)NC(=O)Nc1nc(C)cc(C)n1 | Progesterone receptor (Homo sapiens) | inactive |
| O=C1CN=C(c2ccccc2)c2cc([N+](=O)[O-])ccc2N1 | Progesterone receptor (Homo sapiens) | inactive |
| CC(C)NCC(O)c1ccc(N)c(C#N)c1 (configuration not stated) | Progesterone receptor (Homo sapiens) | inactive |
| CNC(=O)Oc1cccc(C(C)C)c1 | Progesterone receptor (Homo sapiens) | inactive |
| CC(C)CP(=S)(S)CC(C)C | Progesterone receptor (Homo sapiens) | active |
| CN(N=O)C(N)=O | Progesterone receptor (Homo sapiens) | inactive |
| CNCC(=O)c1ccc(O)c(O)c1 | Progesterone receptor (Homo sapiens) | inactive |
| COC(=O)c1ccccc1S(=O)(=O)NC(=O)N(C)c1nc(C)nc(OC)n1 | Progesterone receptor (Homo sapiens) | inactive |
| C[C@@H]1CN(C2CCC(C#N)(c3ccc(F)cc3)CC2)CC[C@]1(C(=O)O)c1ccccc1 (some centres not stated) | Progesterone receptor (Homo sapiens) | inactive |
| CC1CCC(=O)O1 (configuration not stated) | Progesterone receptor (Homo sapiens) | inactive |
| COC(C)(C)C | Progesterone receptor (Homo sapiens) | inactive |
| CN1C(=S)CN=C(c2ccccc2)c2cc(Cl)ccc21 | Progesterone receptor (Homo sapiens) | active |
| CC(C1CC1)C(O)(Cn1cncn1)c1ccc(Cl)cc1 (configuration not stated) | Progesterone receptor (Homo sapiens) | active |
| COc1cc(OC)nc(Sc2cccc(Cl)c2C(=O)O)n1 | Progesterone receptor (Homo sapiens) | inactive |
| O=NN1CCCCC1 | Progesterone receptor (Homo sapiens) | inactive |
| [O]=[Cd] | Progesterone receptor (Homo sapiens) | inactive |
| c1ccc(N2CCNCC2)cc1 | Progesterone receptor (Homo sapiens) | inactive |
| CC(C=O)Cc1ccc2c(c1)OCO2 (configuration not stated) | Progesterone receptor (Homo sapiens) | inactive |
| NC(=O)c1cc([N+](=O)[O-])cc([N+](=O)[O-])c1 | Progesterone receptor (Homo sapiens) | inactive |
| O=C(O)C(Br)CBr (configuration not stated) | Progesterone receptor (Homo sapiens) | inactive |
| C[N+](C)=CCl | Progesterone receptor (Homo sapiens) | inactive |
| CCN(CC)C(=O)[C@@H]1C=C2c3cccc4[nH]cc(c34)C[C@H]2N(C)C1 | Progesterone receptor (Homo sapiens) | inactive |
| O=S(=O)(O)C(F)(F)C(F)(F)C(F)(F)C(F)(F)C(F)(F)C(F)(F)F | Progesterone receptor (Homo sapiens) | inactive |
| CCCCN(CCCCO)N=O | Progesterone receptor (Homo sapiens) | inactive |
| C[N+](=O)[O-] | Progesterone receptor (Homo sapiens) | inactive |
